molecular target: ACVR2B (human) (UniProt Q13705); test: KINOMEscan competition binding; settings: compound 10.0 µM
Sequence (Q13705 whole entry, looked up): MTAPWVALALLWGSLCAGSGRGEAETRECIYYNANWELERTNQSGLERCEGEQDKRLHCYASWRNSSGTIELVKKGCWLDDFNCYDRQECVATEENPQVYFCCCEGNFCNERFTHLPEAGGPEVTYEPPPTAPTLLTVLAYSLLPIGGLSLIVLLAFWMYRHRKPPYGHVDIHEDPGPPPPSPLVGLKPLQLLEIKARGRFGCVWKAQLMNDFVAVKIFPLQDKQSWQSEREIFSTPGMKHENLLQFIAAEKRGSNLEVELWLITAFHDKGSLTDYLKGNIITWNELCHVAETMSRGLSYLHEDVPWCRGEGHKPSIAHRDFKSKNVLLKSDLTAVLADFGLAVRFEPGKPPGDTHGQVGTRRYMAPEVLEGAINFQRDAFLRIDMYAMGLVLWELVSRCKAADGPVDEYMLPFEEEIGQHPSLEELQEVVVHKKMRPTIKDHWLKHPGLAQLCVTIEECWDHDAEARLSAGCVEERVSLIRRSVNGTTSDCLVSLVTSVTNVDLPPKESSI
Field: kinase still bound, per cent of control. Provide a value for each of the molecules that follow.
One number for each entry, in %.

Consider the following illustrative entries.
{"columns": ["MOLECULE", "MEASURE UNIT", "kinase still bound, per cent of control"],
 "data": [
  ["COc1cc2c(Nc3ccc(NC(=O)c4ccccc4)cc3)ncnc2cc1OCCCN1CCOCC1", "%", 100],
  ["N#Cc1cc(-c2ccnc(Nc3ccc(-n4cnc(-c5cccnc5)n4)cc3)n2)cc(N2CCOCC2)c1", "%", 49],
  ["COc1cc2ncnc(Nc3cccc(Cl)c3)c2cc1OC", "%", 54]
]}

For every listed record, write down its kinase still bound, per cent of control.
1. CCN1CCN(Cc2ccc(NC(=O)c3ccc(C)c(/C=C/c4cnc5[nH]ccc5c4OC)c3)cc2C(F)(F)F)CC1
2. N#C/C(=C1/Nc2ccccc2S1)c1ccnc(NCCc2cccnc2)n1
3. CCCS(=O)(=O)Nc1ccc(F)c(C(=O)c2c[nH]c3ncc(Cl)cc23)c1F
4. CCN(CCO)CCCOc1ccc2c(Nc3cc(CC(=O)Nc4cccc(F)c4)[nH]n3)ncnc2c1
5. COc1ccc(N(C(=O)Oc2cc(C(=O)Nc3cccc(C(F)(F)F)c3)ccc2C)c2ccnc(Nc3ccc(N4CCN(C)CC4)cc3)n2)c(OC)c1
6. COc1cc(C)c(Sc2cnc(NC(=O)c3ccc(CNC(C)C(C)C)cc3)s2)cc1C(=O)N1CCN(C(C)=O)CC1 (stereo not drawn)

Result:
[62, 98, 28, 100, 100, 100]

For every listed record, write down its kinase still bound, per cent of control.
1. CNC(=O)Nc1ccc(-c2nc(N3CC4CCC(C3)O4)c3cnn(C4CCC5(CC4)OCCO5)c3n2)cc1
2. CC(=O)c1c(C)c2cnc(Nc3ccc(N4CCNCC4)cn3)nc2n(C2CCCC2)c1=O
3. COc1cc(N2CCC(C(N)=O)CC2)ccc1Nc1nc(N)c(Cl)c(Nc2ccccc2S(=O)(=O)C(C)C)n1
4. CC1=C(C(=O)Nc2cc3cn[nH]c3cc2F)C(c2ccc(C(F)(F)F)cc2)CC(=O)N1 (stereo not drawn)
5. CCOc1cc(N2CCC(O)CC2)ccc1Nc1ncc2c(n1)N(C)c1ccccc1C(=O)N2C

Result:
1. 77
2. 100
3. 100
4. 96
5. 100
